Cited source for all entries: ChEMBL document CHEMBL1926620

Target: Papain (Carica papaya, UniProt P00784)
Sequence (P00784 whole entry): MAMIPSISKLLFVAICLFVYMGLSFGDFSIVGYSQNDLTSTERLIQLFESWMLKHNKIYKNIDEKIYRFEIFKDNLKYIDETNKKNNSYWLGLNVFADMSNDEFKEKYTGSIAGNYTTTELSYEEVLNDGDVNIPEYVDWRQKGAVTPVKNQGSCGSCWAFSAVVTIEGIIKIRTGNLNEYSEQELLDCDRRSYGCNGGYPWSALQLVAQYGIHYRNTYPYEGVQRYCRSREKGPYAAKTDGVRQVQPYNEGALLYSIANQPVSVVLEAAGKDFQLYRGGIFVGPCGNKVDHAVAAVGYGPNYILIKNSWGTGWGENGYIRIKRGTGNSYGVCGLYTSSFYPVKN
// reported IC50 per item
readout.label: IC50

1) CC(C)C[C@H](NC(=O)N1CCOCC1)C(=O)NN(CCc1ccccc1)C(=O)/C=C/S(=O)(=O)c1ccccc1 : > 50 µM
2) O=C(CNC(=O)OCc1ccccc1)NN(CCc1ccccc1)C(=O)/C=C/S(=O)(=O)c1ccccc1 : > 50 µM
3) O=C(N[C@@H](Cc1ccccc1)C(=O)NN(CCc1ccccc1)C(=O)/C=C/S(=O)(=O)c1ccccc1)OCc1ccccc1 : > 50 µM
4) CC(C)C[C@H](NC(=O)[C@H]1O[C@@H]1C(=O)O)C(=O)NCCCCN=C(N)N : 0.002 µM
